Listing: EC50 of selected compounds
TESTED ON: F508delCFTR (Homo sapiens, UniProt P13569, DEL508-508)
Construct: expressed in transfected cells; host or cells: CFBE41o- human lung-derived epithelial cells (CFBE4lo-F508delCFTR-HRP), doxycycline-inducible
Sequence (P13569 with tags, fused parts or gaps DEL508-508): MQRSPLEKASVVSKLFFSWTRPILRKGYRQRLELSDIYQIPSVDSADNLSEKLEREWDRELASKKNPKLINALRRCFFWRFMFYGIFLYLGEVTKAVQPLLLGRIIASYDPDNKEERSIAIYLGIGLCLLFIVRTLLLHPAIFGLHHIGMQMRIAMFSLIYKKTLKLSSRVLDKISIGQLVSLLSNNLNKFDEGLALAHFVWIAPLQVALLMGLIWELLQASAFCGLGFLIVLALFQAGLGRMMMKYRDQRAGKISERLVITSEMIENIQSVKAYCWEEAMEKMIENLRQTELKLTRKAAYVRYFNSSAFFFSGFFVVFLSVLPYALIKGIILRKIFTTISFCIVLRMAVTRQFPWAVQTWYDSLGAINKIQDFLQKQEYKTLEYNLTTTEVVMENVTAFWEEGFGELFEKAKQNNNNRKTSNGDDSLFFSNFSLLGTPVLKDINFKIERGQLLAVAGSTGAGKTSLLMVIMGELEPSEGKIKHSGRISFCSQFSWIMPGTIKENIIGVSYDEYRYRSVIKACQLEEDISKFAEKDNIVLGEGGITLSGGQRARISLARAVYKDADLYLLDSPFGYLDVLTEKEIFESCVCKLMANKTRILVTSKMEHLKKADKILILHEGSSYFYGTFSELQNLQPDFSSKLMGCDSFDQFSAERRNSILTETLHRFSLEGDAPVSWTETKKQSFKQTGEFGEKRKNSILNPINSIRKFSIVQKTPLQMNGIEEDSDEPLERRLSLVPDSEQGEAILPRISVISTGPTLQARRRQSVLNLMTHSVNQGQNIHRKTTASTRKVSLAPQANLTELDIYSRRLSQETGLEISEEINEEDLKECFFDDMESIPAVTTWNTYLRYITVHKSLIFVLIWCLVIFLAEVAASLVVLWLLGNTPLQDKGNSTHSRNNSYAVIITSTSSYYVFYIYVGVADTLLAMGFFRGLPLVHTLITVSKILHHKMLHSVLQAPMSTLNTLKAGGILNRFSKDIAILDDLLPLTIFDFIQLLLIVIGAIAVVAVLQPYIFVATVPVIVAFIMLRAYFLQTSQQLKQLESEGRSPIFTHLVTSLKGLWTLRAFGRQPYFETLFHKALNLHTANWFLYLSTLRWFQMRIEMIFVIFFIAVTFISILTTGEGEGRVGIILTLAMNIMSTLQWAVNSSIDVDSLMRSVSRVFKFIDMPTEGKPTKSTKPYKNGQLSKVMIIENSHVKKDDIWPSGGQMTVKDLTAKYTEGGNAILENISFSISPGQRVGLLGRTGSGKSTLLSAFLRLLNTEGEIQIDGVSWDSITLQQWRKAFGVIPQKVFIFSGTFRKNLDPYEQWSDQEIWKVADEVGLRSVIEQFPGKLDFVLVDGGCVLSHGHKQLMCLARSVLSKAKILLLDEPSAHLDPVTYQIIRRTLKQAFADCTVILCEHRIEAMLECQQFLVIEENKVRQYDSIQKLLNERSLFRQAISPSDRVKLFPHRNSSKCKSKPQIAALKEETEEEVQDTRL
PROTOCOL SUMMARY: Cell Surface Expression-Horse Radish Peroxidase (CSE-HRP) Assay
Type: cell-based
TEST SETTINGS: test compound without co-corrector; read-out: EC50 (without co-corrector)

COMPOUND	VAL
COc1ccc(C(C)(C)C)nc1CN[C@H]1[C@H](C(C)(C)C)[C@@H](C(=O)O)N(C(=O)C2CCCCC2)[C@H]1c1ccccc1	1 to 10 µM
COc1ncc(C2CCC2)cc1CN[C@H]1[C@H](C(C)(C)C)[C@@H](C(=O)O)N(C(=O)C2C3CCCC32)[C@H]1c1cccnc1OC (stereo partly drawn)	1 to 10 µM

// next item, EC50 requested
GET EC50 where system = F508delCFTR (Homo sapiens, UniProt P13569, DEL508-508) and item = COc1ccc(C(C)(C)C)cc1CN[C@H]1[C@H](C(C)(C)C)[C@@H](C(=O)O)N(C(=O)[C@H](C)[C@@H]2CCCCO2)[C@H]1c1ccccc1 (relative stereo) 1 to 10 µM

Data origin: patent US20180099931A1
